Source of measurements: patent US7632952B2

Molecular target: CDK2/cyclin E (Homo sapiens)
Test: CDK2/cyclin E Flashplate test in 96-well format
Assay type: biochemical
Settings: read-out: CDK2 IC50
Where a name gives a salt, the structure may show the parent alone.
quantity.name: IC50 (nM)

// below: answered molecules
{"molecule": "CCNCCNc1ccc(S(=O)(=O)Oc2ccc3nc(NC(=O)CCCCCCCN)sc3c2)cc1 [Example 22b]", "unit.string": "nM", "value": 547}
{"molecule": "CNCC(=O)Nc1nc2ccc(OS(=O)(=O)c3cccs3)cc2s1 [Example 33c, trifluoroacetic acid]", "unit.string": "nM", "value": 8270}

1. CC(C)(O)CNc1ccc(S(=O)(=O)Oc2ccc3nc(NC(=O)C4CC4)sc3c2)cc1
2. CCNCCNc1ccc(S(=O)(=O)Oc2ccc3nc(NC(=O)CC4CCNCC4)sc3c2)cc1 [Example 19b, hydrochloride]
Response body: label of entry with the larger IC50; valid values 1 , 2 . Please reply using the label of the selected record.
2
(2: 5470 nM, 1: 19 nM)

I. CCCC(=O)Nc1nc2ccc(OS(=O)(=O)c3ccc(NCCN(C(C)C)C(C)C)cc3)cc2s1 [Example 79, hydrochloride]
II. CC(C)N(CCNc1ccc(S(=O)(=O)Oc2ccc3nc(NC(=O)CCCCCCCN)sc3c2)cc1)C(C)C
Endpoint returns the identifier whose IC50 is numerically larger, either I or II . Refer to your chosen entry by its label in the reply.
II
(II: 209 nM, I: 43 nM)
